# experimentalDetails: Ratio of drug level in brain to plasma in african green monkey
# Assay type: ADME, organism-based
# cond: chlorocebus aethiops
Known Kp of a selection of compounds

[
  {
    "chemicalString": "Cc1cc(C(=O)NC2(C(=O)N[C@H](C)c3ncc(-c4cc(Cl)cc(Cl)c4OCC(F)F)cc3F)CC2)no1",
    "Kp": 0.9
  },
  {
    "chemicalString": "COc1cc(C(=O)NC2(C(=O)N[C@H](C)c3ncc(-c4cc(Cl)cc(Cl)c4OCC(F)F)cc3F)CC2)on1",
    "Kp": 0.7
  },
  {
    "chemicalString": "CCOc1c(Cl)cc(Cl)cc1-c1cnc([C@@H](C)NC(=O)C2(NC(=O)c3ccno3)CC2)c(F)c1",
    "Kp": 1.4
  },
  {
    "chemicalString": "CCOc1c(Cl)cc(Cl)cc1-c1cnc([C@@H](C)NC(=O)C2(NC(=O)C(F)(F)F)CC2)c(F)c1",
    "Kp": 2.2
  }
]

###

# experimentalDetails: Oral bioavailability in Sprague-Dawley rat at 10 mg/kg
# Type: ADME, organism-based
# cond: in vivo
Label scheme for bioavailability: lower than 40% is Criterion not met, 40% and above is Criterion met.

[
  {
    "chemicalString": "CCOc1c(Cl)cc(Cl)cc1-c1ccc([C@@H](C)NC(=O)C2(NC(=O)C(F)(F)F)CC2)c(F)c1",
    "answerLabel": "Criterion not met"
  },
  {
    "chemicalString": "CCOc1c(Cl)cccc1-c1ccc([C@@H](C)NC(=O)C2(NC(=O)C(F)(F)F)CC2)c(F)c1",
    "answerLabel": "Criterion met"
  },
  {
    "chemicalString": "C[C@@H](NC(=O)C1(NC(=O)C(F)(F)F)CC1)c1ccc(-c2cc(Cl)cc(Cl)c2OC(CF)CF)cc1F",
    "answerLabel": "Criterion met"
  },
  {
    "chemicalString": "C[C@@H](NC(=O)C1(NC(=O)C(F)(F)F)CC1)c1ccc(-c2cc(Cl)cc(Cl)c2OCC(F)(F)F)cc1F",
    "answerLabel": "Criterion not met"
  },
  {
    "chemicalString": "CCOc1c(Cl)cc(Cl)cc1-c1cnc([C@@H](C)NC(=O)C2(NC(=O)c3ccno3)CC2)c(F)c1",
    "answerLabel": "Criterion not met"
  },
  {
    "chemicalString": "COc1cc(C(=O)NC2(C(=O)N[C@H](C)c3ncc(-c4cc(Cl)cc(Cl)c4OCC(F)F)cc3F)CC2)on1",
    "answerLabel": "Criterion met"
  },
  {
    "chemicalString": "Cc1cc(C(=O)NC2(C(=O)N[C@H](C)c3ncc(-c4cc(Cl)cc(Cl)c4OCC(F)F)cc3F)CC2)no1",
    "answerLabel": "Criterion not met"
  },
  {
    "chemicalString": "CCOc1c(Cl)cc(Cl)cc1-c1cnc([C@@H](C)NC(=O)C2(NC(=O)C(F)(F)F)CC2)c(F)c1",
    "answerLabel": "Criterion not met"
  }
]

###

# experimentalDetails: Clearance in Sprague-Dawley rat at 10 mg/kg, po or 2 mg/kg, iv
# Format: ADME, organism-based
# cond: in vivo

[
  {
    "chemicalString": "CCOc1c(Cl)cc(Cl)cc1-c1cnc([C@@H](C)NC(=O)C2(NC(=O)C(F)(F)F)CC2)c(F)c1",
    "clearance": "11.3 mL/min/kg"
  },
  {
    "chemicalString": "C[C@@H](NC(=O)C1(NC(=O)C(F)(F)F)CC1)c1ccc(-c2cc(Cl)cc(Cl)c2OC(CF)CF)cc1F",
    "clearance": "1.6 mL/min/kg"
  },
  {
    "chemicalString": "CCOc1c(Cl)cc(Cl)cc1-c1cnc([C@@H](C)NC(=O)C2(NC(=O)c3ccno3)CC2)c(F)c1",
    "clearance": "10 mL/min/kg"
  },
  {
    "chemicalString": "C[C@@H](NC(=O)C1(NC(=O)C(F)(F)F)CC1)c1ccc(-c2cc(Cl)cc(Cl)c2OCC(F)F)cc1F",
    "clearance": "5.8 mL/min/kg"
  },
  {
    "chemicalString": "C[C@@H](NC(=O)C1(NC(=O)C(F)(F)F)CC1)c1ccc(-c2cc(Cl)cc(Cl)c2OCC(F)(F)F)cc1F",
    "clearance": "1.1 mL/min/kg"
  },
  {
    "chemicalString": "CCOc1c(Cl)cccc1-c1ccc([C@@H](C)NC(=O)C2(NC(=O)C(F)(F)F)CC2)c(F)c1",
    "clearance": "16 mL/min/kg"
  },
  {
    "chemicalString": "Cc1cc(C(=O)NC2(C(=O)N[C@H](C)c3ncc(-c4cc(Cl)cc(Cl)c4OCC(F)F)cc3F)CC2)no1",
    "clearance": "5.1 mL/min/kg"
  },
  {
    "chemicalString": "COc1cc(C(=O)NC2(C(=O)N[C@H](C)c3ncc(-c4cc(Cl)cc(Cl)c4OCC(F)F)cc3F)CC2)on1",
    "clearance": "2.4 mL/min/kg"
  },
  {
    "chemicalString": "CCOc1c(Cl)cc(Cl)cc1-c1ccc([C@@H](C)NC(=O)C2(NC(=O)C(F)(F)F)CC2)c(F)c1",
    "clearance": "11.5 mL/min/kg"
  }
]

###

# experimentalDetails: Clearance in Mongrel dog at 1 mg/kg, iv
# Format: ADME, organism-based, Canis lupus familiaris
# Parameters: dose 1 mg/kg, route intravenous
# cond: in vivo
Known clearance of a selection of compounds

[
  {
    "chemicalString": "COC(=O)c1c(Cl)cc(Cl)cc1-c1ccc([C@@H](C)NC(=O)C2(NC(=O)C(F)(F)F)CC2)c(F)c1",
    "clearance / mL/min/kg": 20
  },
  {
    "chemicalString": "C[C@@H](NC(=O)C1(NC(=O)c2ccno2)CC1)c1ncc(-c2cc(Cl)cc(Cl)c2OCC(F)F)cc1F",
    "clearance / mL/min/kg": 5.9
  },
  {
    "chemicalString": "C[C@@H](NC(=O)C1(NC(=O)C(F)(F)F)CC1)c1ncc(-c2cc(Cl)cc(Cl)c2OCC(F)F)cc1F",
    "clearance / mL/min/kg": 2.3
  }
]

###

# experimentalDetails: Ratio of permeability from basolateral to apical over apical to basolateral side in P-gp expressing cells

[
  {
    "chemicalString": "C[C@@H](NC(=O)C1(NC(=O)c2cc(Cl)no2)CC1)c1ncc(-c2cc(Cl)cc(Cl)c2OCC(F)F)cc1F",
    "Ratio": 1.6
  },
  {
    "chemicalString": "C[C@@H](NC(=O)C1(NC(=O)c2ccon2)CC1)c1ncc(-c2cc(Cl)cc(Cl)c2OCC(F)F)cc1F",
    "Ratio": 1.8
  },
  {
    "chemicalString": "CCOc1cc(C(=O)NC2(C(=O)N[C@H](C)c3ncc(-c4cc(Cl)cc(Cl)c4OCC(F)F)cc3F)CC2)on1",
    "Ratio": 2.1
  },
  {
    "chemicalString": "CCc1cc(C(=O)NC2(C(=O)N[C@H](C)c3ncc(-c4cc(Cl)cc(Cl)c4OCC(F)F)cc3F)CC2)no1",
    "Ratio": 2
  },
  {
    "chemicalString": "Cc1cc(C(=O)NC2(C(=O)N[C@H](C)c3ncc(-c4cc(Cl)cc(Cl)c4OCC(F)F)cc3F)CC2)no1",
    "Ratio": 1.5
  },
  {
    "chemicalString": "COc1cc(C(=O)NC2(C(=O)N[C@H](C)c3ncc(-c4cc(Cl)cc(Cl)c4OCC(F)F)cc3F)CC2)on1",
    "Ratio": 2
  },
  {
    "chemicalString": "CCOc1c(Cl)cccc1-c1ccc([C@@H](C)NC(=O)C2(NC(=O)C(F)(F)F)CC2)c(F)c1",
    "Ratio": 1.9
  },
  {
    "chemicalString": "C[C@@H](NC(=O)C1(NC(=O)c2cc(C3CC3)on2)CC1)c1ncc(-c2cc(Cl)cc(Cl)c2OCC(F)F)cc1F",
    "Ratio": 3.8
  },
  {
    "chemicalString": "C[C@@H](NC(=O)C1(NC(=O)c2ccno2)CC1)c1ncc(-c2cc(Cl)cc(Cl)c2OCC(F)F)cc1F",
    "Ratio": 3.9
  },
  {
    "chemicalString": "COC(=O)c1c(Cl)cc(Cl)cc1-c1ccc([C@@H](C)NC(=O)C2(NC(=O)c3cc(OC)no3)CC2)c(F)c1",
    "Ratio": 5.1
  }
]

###

Known bioavailability of a selection of compounds
# experimentalDetails: Oral bioavailability in rhesus monkey at 3 mg/kg
# Assay type: ADME, organism-based, Macaca mulatta
# cond: in vivo
measurementName: bioavailability (%)

[
  {
    "chemicalString": "COc1cc(C(=O)NC2(C(=O)N[C@H](C)c3ncc(-c4cc(Cl)cc(Cl)c4OCC(F)F)cc3F)CC2)on1",
    "resultNumber": 93
  },
  {
    "chemicalString": "CCOc1c(Cl)cc(Cl)cc1-c1cnc([C@@H](C)NC(=O)C2(NC(=O)c3ccno3)CC2)c(F)c1",
    "resultNumber": 3
  },
  {
    "chemicalString": "Cc1cc(C(=O)NC2(C(=O)N[C@H](C)c3ncc(-c4cc(Cl)cc(Cl)c4OCC(F)F)cc3F)CC2)no1",
    "resultNumber": 25
  }
]
